Entry source: PubChem BioAssay AID256

Tested on: CD2F1 mice, L1210 leukemia ip, survival T/C
Experiment: NCI In Vivo Anticancer Drug Screen. Data for tumor model L1210 Leukemia (intraperitoneal) in CD2F1 (CDF1) mice
Conditions: endpoint: mean survival time; dose: 200.0 mg/kg/injection; schedule: Q01DX001 (ip); vehicle: saline; higher = longer survival
Method: The antitumor activity of compounds was measured in mice bearing transplantable tumors. Survival or tumor size were measured and the results are expressed as the measurement made in the treated group (T) divided by the measurement made in the vehicle treated control group (C). The tumor model used in this assay is L1210 Leukemia (intraperitoneal) in CD2F1 (CDF1) mice
Toxic doses and inconclusive results are not listed.
measure: T/C

Quick one: T/C for O=C(Nc1c(Oc2ccc(Cl)cc2)ccc(Cl)c1S(=O)(=O)O)Nc1c(Oc2ccc(Cl)c(Cl)c2)ccc(Cl)c1S(=O)(=O)O ?
88 % of control

Quick one: T/C for CCOC(=O)/C=C(/C)N ?
101 % of control

Quick one: T/C for C#CC12CCCCN1CCC2 (stereo not drawn) ?
97 % of control

Quick one: T/C for O=[N+]([O-])c1ccccc1N/N=C/c1ccccc1 ?
97 % of control

Quick one: T/C for N\C([S-])=N/N=C\C(=N/N=C(\N)[S-])C(O)C(O)C(O)CO.[Rh+2] (stereo not drawn) ?
96 % of control

Quick one: T/C for CCC(/C=N\O)CC ?
108 % of control

Quick one: T/C for CCC[CH2][Sn]1([CH2]CCC)[O]C(=O)C2CC=CCC2C(=O)[O]1 (stereo not drawn) ?
104 % of control

Quick one: T/C for CC(Sc1ccccc1)C(=O)O (stereo not drawn) ?
102 % of control

Quick one: T/C for O=C1OC(=O)C2C3CC(C(Br)C3Br)C12 (stereo not drawn) ?
98 % of control

Quick one: T/C for O=c1[nH]c2c(c(=O)n1-c1ccccc1)CCCS2 ?
104 % of control

Quick one: T/C for N=c1cc([N+](=O)[O-])ccn1O ?
97 % of control

Quick one: T/C for COC1(O)C(=O)c2ccccc2OC1(OC)c1ccc(C)cc1 (stereo not drawn) ?
96 % of control

Quick one: T/C for CCC(=O)c1cc(O)ccc1O ?
101 % of control

Quick one: T/C for CCOC(=O)CSc1ccc(F)cc1 ?
100 % of control

Quick one: T/C for NC(=O)c1ncn(C2OC(COP(=O)(O)O)C(O)C2O)c1N (stereo not drawn) ?
95 % of control

Quick one: T/C for O=CN(Cc1ccccc1)c1cc([N+](=O)[O-])ccc1OCc1ccccc1 ?
94 % of control

Quick one: T/C for O=c1ccn(C2OC(CCl)C(O)C2O)c(=O)[nH]1 (stereo not drawn) ?
94 % of control

Quick one: T/C for CCCOC(=O)C(C(=O)OCCC)(C(=O)OCCC)C(=O)OCCC ?
107 % of control

Quick one: T/C for CNNCCO ?
101 % of control

Quick one: T/C for O=C(O)c1ccccc1.[Pb] ?
102 % of control

Quick one: T/C for c1ccc2[nH]c(C3CCCCN3)cc2c1 (stereo not drawn) ?
96 % of control

Quick one: T/C for CC(C)NCC(O)c1ccc(O)c(O)c1 (stereo not drawn) ?
104 % of control

Quick one: T/C for OCCCCCCl ?
98 % of control
